Target: T1, recombinant soluble human Seprase (rhuSeprase) (human, UniProt Q12884 29-760)
T1 construct: range 29-760; Secreted from CHO-S cells with a mouse Ig kappa secretion signal (not part of the protein in the assay); also called recombinant human Seprase; soluble fraction of human Seprase
T1 sequence: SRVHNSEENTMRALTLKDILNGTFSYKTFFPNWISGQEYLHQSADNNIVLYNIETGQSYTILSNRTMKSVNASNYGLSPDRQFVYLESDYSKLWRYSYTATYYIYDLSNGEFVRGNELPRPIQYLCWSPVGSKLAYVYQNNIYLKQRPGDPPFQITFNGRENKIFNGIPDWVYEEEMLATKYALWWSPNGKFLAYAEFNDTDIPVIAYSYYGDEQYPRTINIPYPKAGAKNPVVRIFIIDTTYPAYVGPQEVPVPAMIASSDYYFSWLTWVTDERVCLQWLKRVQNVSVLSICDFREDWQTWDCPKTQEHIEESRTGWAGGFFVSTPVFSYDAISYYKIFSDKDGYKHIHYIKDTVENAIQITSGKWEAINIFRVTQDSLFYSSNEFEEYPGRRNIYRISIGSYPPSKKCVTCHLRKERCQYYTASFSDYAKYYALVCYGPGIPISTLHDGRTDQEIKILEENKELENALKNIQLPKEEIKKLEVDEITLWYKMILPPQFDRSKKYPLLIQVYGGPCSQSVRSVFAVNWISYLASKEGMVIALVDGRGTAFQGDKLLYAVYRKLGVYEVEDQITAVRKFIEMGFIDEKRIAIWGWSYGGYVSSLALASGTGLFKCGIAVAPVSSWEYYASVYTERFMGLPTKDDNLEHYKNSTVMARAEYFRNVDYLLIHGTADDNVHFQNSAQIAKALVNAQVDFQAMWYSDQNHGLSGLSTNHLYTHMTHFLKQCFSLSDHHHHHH
Assay: SPR (Biacore T-100), rhuSeprase immobilized on CM5, multi cycle kinetics, 1:1 fit
No end group written: not given here.
Would you mind telling me the reported log10(koff) of each entry?
Reminder: these figures are log10 of reported koff, in s⁻¹ before transformation.

Problem: Suppose we examine the binder GSGACPYSRWMPGRGPSCRRDSDCPGRCICRGNGYCG (designed binder) [FA7-A05] ; what log10(koff) value has been reported?
Result: -1.30

Problem: Likewise for GSGACPYTRWAVGRGPDCRRDSDCPGRCICRGNGYCG (designed binder) [FA8-D03] ?
Result: -0.86

Problem: Input GSGACPYSNWTPGRGPDCSSDSDCPGACICLENGFCG (designed binder) [MO-FA-012]
Result: -0.29

Problem: Moving on to GKCPYSNWTPGRGPDCRRDSDCPGRCICRGNGYCG (designed binder, disulfide (positions not given here), also called soluble monovalent MC-FA-010; solitary MC-FA-010 miniprotein) [MC-FA-010]
Result: -0.70

Problem: Entry GSGACPYSNWAVGRGPSCRRDSDCPGRCICRGNGYCG (designed binder) [FA8-F04] please
Result: -0.70

Problem: Another: GSGACPYSNWTPGRGPDCSQDSDCLAGCVCGPNGFCG (designed binder) [ET-FA-012]
Result: -0.07

Problem: Also, GSGACPYSRWAVGRGPDCRRDSDCPGRCICRGNGYCG (designed binder) [FA8-D06] please.
Result: -1.28

Problem: Same question, GSGACPYTRWQPGRGPSCRRDSDCPGRCICRGNGYCG (designed binder) [FA8-D05] this time
Result: -0.09

Problem: Could you do the same for GSGACPYTNWRPGRGPACRRDSDCPGRCICRGNGYCG (designed binder) [FA8-C09] , please?
Result: 0.47

Problem: Consider next the binder GACPYSNWTPGRGPDCRRDSDCPGRCICRGNGYCG (designed binder, disulfide (positions not given here), it is derived from MC-FA-010 and K2A; also called MC-FA-012 (K2A); monomeric MC-FA-012 Microbody) [MC-FA-012] in the same way.
Result: -0.86

Problem: Try this binder next: GSGACPYTNWHPGRGPACRRDSDCPGRCICRGNGYCG (designed binder) [FA8-G12]
Result: -0.50

FYI, the data here is from patent US20180037632A1.
